All values here come from ChEMBL document CHEMBL5291721.

Entries with their measured AC50, system Histamine H1 receptor (Homo sapiens, UniProt P35367):

AC50 in this record for CCN(CC)C(=O)C1(c2ccccc2)CC1CN (centres undefined) : > 30 µM

AC50 in this record for CN(C)c1cc(NC(=O)CNC(C)(C)C)c(O)c2c1C[C@H]1C[C@H]3[C@H](N(C)C)C(O)=C(C(N)=O)C(=O)[C@@]3(O)C(O)=C1C2=O [TIGECYCLINE] : > 30 µM

AC50 in this record for Nc1nc(F)nc2c1ncn2[C@@H]1O[C@H](COP(=O)(O)O)[C@@H](O)[C@@H]1O [FLUDARABINE PHOSPHATE] : > 30 µM

AC50 in this record for CN1CCN(CCCN2c3ccccc3Sc3ccc(S(=O)(=O)N(C)C)cc32)CC1 [THIOPROPERAZINE] : 0.33 µM

* * *

# target under test: Muscarinic acetylcholine receptor M2 (Homo sapiens, UniProt P08172); also: assay procedure not described here
# Sequence (P08172 whole entry): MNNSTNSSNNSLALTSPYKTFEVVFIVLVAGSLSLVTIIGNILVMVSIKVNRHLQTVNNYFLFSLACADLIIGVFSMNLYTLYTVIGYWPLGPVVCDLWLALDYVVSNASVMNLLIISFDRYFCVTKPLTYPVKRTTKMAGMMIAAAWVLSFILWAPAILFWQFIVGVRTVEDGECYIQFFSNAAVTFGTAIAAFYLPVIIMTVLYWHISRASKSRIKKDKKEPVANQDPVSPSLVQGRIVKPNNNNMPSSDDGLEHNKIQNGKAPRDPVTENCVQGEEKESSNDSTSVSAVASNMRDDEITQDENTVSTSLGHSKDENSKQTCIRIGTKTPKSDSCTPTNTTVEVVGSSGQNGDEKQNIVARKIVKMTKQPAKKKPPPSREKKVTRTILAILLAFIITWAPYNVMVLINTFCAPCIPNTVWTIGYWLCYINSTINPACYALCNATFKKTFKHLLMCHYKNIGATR
# Assay type: functional, cell-based
recorded metric: AC50

AC50 in this record for CCCCC1(CC)C(=O)NC(=O)NC1=O : > 30 µM

AC50 in this record for CCCN(CCc1cccs1)[C@H]1CCc2c(O)cccc2C1 : > 10 µM

AC50 in this record for COc1ccnc(C[S+]([O-])c2nc3ccc(OC(F)F)cc3[nH]2)c1OC (stereo not given) : > 10 µM

AC50 in this record for CC(=O)Nc1c(I)c(C(=O)N[C@H]2C(O)O[C@H](CO)[C@@H](O)[C@@H]2O)c(I)c(N(C)C(C)=O)c1I (stereo not given in full) [METRIZAMIDE] : > 10 µM

AC50 in this record for CN1C[C@H](C(=O)N[C@]2(C)O[C@@]3(O)[C@@H]4CCCN4C(=O)[C@H](Cc4ccccc4)N3C2=O)C[C@@H]2c3cccc4[nH]cc(c34)C[C@H]21 [DIHYDROERGOTAMINE] : > 10 µM

* * *

# target under test: 5-hydroxytryptamine receptor 1A (Homo sapiens, UniProt P08908); also: assay procedure not described here
# Sequence (P08908 whole entry): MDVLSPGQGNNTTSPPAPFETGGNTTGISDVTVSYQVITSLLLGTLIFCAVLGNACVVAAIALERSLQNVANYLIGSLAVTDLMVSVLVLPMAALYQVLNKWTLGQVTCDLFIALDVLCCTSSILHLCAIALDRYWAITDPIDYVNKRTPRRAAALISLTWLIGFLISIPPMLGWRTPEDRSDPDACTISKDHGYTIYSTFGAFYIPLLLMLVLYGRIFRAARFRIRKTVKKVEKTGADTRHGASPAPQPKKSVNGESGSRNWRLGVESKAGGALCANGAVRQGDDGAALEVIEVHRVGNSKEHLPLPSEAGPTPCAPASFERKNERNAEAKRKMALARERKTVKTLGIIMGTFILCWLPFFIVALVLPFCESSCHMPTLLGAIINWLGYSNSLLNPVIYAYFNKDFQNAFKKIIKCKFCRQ
# Format: functional, cell-based
recorded metric: AC50

AC50 in this record for CCCN(CC)C(CC)C(=O)Nc1c(C)cccc1C (stereo not given) [ETIDOCAINE] : > 30 µM

AC50 in this record for CCCCC1(CC)C(=O)NC(=O)NC1=O [BUTETHAL] : > 30 µM

AC50 in this record for CC(C)(C)NC[C@H](O)COc1nsnc1N1CCOCC1 [TIMOLOL] : > 30 µM

AC50 in this record for CC(=O)S[C@@H]1CC2=CC(=O)CC[C@]2(C)[C@H]2CC[C@@]3(C)[C@@H](CC[C@@]34CCC(=O)O4)[C@H]12 [SPIRONOLACTONE] : > 30 µM

AC50 in this record for CC(C)c1cc2c(cc1S(=O)(=O)O)[C@@]1(C)CCC[C@@](C)(C(=O)O)[C@@H]1CC2 [ECABET] : > 30 µM

AC50 in this record for CC1(C)O[C@@H]2[C@@H](CO[C@@]3(COS(N)(=O)=O)OC(C)(C)O[C@@H]23)O1 [TOPIRAMATE] : > 10 µM

AC50 in this record for COc1ccc(C(CN(C)C)C2(O)CCCCC2)cc1 (stereo not given) [VENLAFAXINE] : > 30 µM

AC50 in this record for Cc1cccc(N(C)C(=S)Oc2ccc3ccccc3c2)c1 [TOLNAFTATE] : > 10 µM

AC50 in this record for COc1cc(OC)c(C(=O)CCCN2CCCC2)c(OC)c1 [BUFLOMEDIL] : > 30 µM

AC50 in this record for COCCOC(=O)C1=C(C)NC(C)=C(C(=O)OC/C=C/c2ccccc2)C1c1cccc([N+](=O)[O-])c1 (stereo not given) [CILNIDIPINE] : > 30 µM

AC50 in this record for CC1(C)C(C=C(Cl)Cl)C1C(=O)OCc1cccc(Oc2ccccc2)c1 (stereo not given) [PERMETHRIN] : > 10 µM

AC50 in this record for CC1(C)S[C@@H]2[C@H](NC(=O)[C@H](N)c3ccc(O)cc3)C(=O)N2[C@H]1C(=O)O [AMOXICILLIN] : > 30 µM

AC50 in this record for CC(C)N(CCCCOCC(=O)NS(C)(=O)=O)c1cnc(-c2ccccc2)c(-c2ccccc2)n1 [SELEXIPAG] : > 30 µM

AC50 in this record for Cc1ccc2c(-c3ccccc3)nc(=O)n(C(C)C)c2c1 [PROQUAZONE] : > 30 µM

AC50 in this record for CCC(=O)O[C@@H](O[P@](=O)(CCCCc1ccccc1)CC(=O)N1C[C@H](C2CCCCC2)C[C@H]1C(=O)O)C(C)C [FOSINOPRIL] : > 30 µM

* * *

For each of the compounds below, state its AC50.
# target under test: Alpha-2A adrenergic receptor (Homo sapiens, UniProt P08913); also: assay procedure not described here
# Sequence (P08913 whole entry): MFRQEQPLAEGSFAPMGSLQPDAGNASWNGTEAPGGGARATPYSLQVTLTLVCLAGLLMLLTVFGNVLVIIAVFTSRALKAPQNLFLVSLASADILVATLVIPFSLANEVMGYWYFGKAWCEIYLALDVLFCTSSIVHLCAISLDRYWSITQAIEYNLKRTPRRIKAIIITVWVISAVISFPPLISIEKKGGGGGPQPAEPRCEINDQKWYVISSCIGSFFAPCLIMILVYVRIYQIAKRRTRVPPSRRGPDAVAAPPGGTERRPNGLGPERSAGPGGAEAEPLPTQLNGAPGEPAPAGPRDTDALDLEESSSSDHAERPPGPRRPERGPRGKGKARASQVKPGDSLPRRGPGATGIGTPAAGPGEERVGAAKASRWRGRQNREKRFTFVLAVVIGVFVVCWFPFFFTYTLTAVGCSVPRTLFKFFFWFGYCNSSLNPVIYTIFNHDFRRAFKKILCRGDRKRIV
# Assay type: functional, cell-based

Entry C=C[C@@]1(C)CC(=O)[C@]2(O)[C@@]3(C)[C@@H](O)CCC(C)(C)[C@@H]3[C@H](OC(=O)CCN(C)C)[C@H](OC(C)=O)[C@@]2(C)O1 , Alpha-2A adrenergic receptor (Homo sapiens, UniProt P08913) data, AC50 value: > 30 µM

Entry CC(C)=CCOc1ccc(/C=C/C(=O)c2ccc(OCC=C(C)C)cc2OCC(=O)O)cc1 , Alpha-2A adrenergic receptor (Homo sapiens, UniProt P08913) data, AC50 value: > 30 µM

Entry Cn1c(=O)c2[nH]cnc2n(C)c1=O , Alpha-2A adrenergic receptor (Homo sapiens, UniProt P08913) data, AC50 value: > 10 µM

Entry O=C1CN2Cc3c(ccc(Cl)c3Cl)N=C2N1 [ANAGRELIDE] , Alpha-2A adrenergic receptor (Homo sapiens, UniProt P08913) data, AC50 value: > 10 µM

Entry c1ccc2c(CC3=NCCN3)cccc2c1 , Alpha-2A adrenergic receptor (Homo sapiens, UniProt P08913) data, AC50 value: 0.043 µM

Entry COc1c(O[C@@H]2O[C@H](CO)[C@@H](O)[C@H](O)[C@H]2O)cc2c(c1OC)-c1ccc(SC)c(=O)cc1[C@@H](NC(C)=O)CC2 [THIOCOLCHICOSIDE] , Alpha-2A adrenergic receptor (Homo sapiens, UniProt P08913) data, AC50 value: > 30 µM

Entry CC(=O)OCC(=O)[C@@]1(O)CC[C@H]2[C@@H]3CCC4=CC(=O)CC[C@]4(C)C3=CC[C@@]21C [ANECORTAVE ACETATE] , Alpha-2A adrenergic receptor (Homo sapiens, UniProt P08913) data, AC50 value: > 10 µM

Entry CCC(=O)O[C@@H](O[P@](=O)(CCCCc1ccccc1)CC(=O)N1C[C@H](C2CCCCC2)C[C@H]1C(=O)O)C(C)C , Alpha-2A adrenergic receptor (Homo sapiens, UniProt P08913) data, AC50 value: > 30 µM

Entry CNC(=O)Oc1ccc2c(c1)[C@]1(C)CCN(C)[C@@H]1N2C , Alpha-2A adrenergic receptor (Homo sapiens, UniProt P08913) data, AC50 value: > 30 µM

Entry CC(C)CC(N(C)C)C1(c2ccc(Cl)cc2)CCC1 (stereo not drawn) , Alpha-2A adrenergic receptor (Homo sapiens, UniProt P08913) data, AC50 value: 30 µM

Entry CCOC(=O)NNc1ccc(N(CC)CC(C)O)nn1 (stereo not drawn) , Alpha-2A adrenergic receptor (Homo sapiens, UniProt P08913) data, AC50 value: > 30 µM

Entry Cc1cnc(NC(=O)C2=C(O)c3ccccc3S(=O)(=O)N2C)s1 , Alpha-2A adrenergic receptor (Homo sapiens, UniProt P08913) data, AC50 value: > 10 µM

Entry NC(=O)c1ncn([C@@H]2O[C@H](CO)[C@@H](O)[C@H]2O)n1 , Alpha-2A adrenergic receptor (Homo sapiens, UniProt P08913) data, AC50 value: > 10 µM

* * *

Entries with their measured AC50, system D(3) dopamine receptor (Homo sapiens, UniProt P35462):

AC50 in this record for Cn1c(=O)c2[nH]cnc2n(C)c1=O : > 30 µM

AC50 in this record for CCCCCCNC(=O)n1cc(F)c(=O)[nH]c1=O : > 30 µM

AC50 in this record for CC(NCCc1ccc(O)cc1)C(O)c1ccc(O)cc1 (configuration not stated) : > 30 µM

AC50 in this record for O=C1CN=C(c2ccccc2)c2cc(Cl)ccc2N1 : > 10 µM

AC50 in this record for CNCC[C@@H](Oc1ccccc1C)c1ccccc1 : 26 µM

AC50 in this record for CC(CCc1ccccc1)NC(C)C(O)c1ccc(O)cc1 (configuration not stated) : 1.3 µM

AC50 in this record for C#Cc1cccc(Nc2ncnc3cc(OCCOC)c(OCCOC)cc23)c1 : > 30 µM

AC50 in this record for OCCN1CCN(CC/C=C2/c3ccccc3Sc3ccc(Cl)cc32)CC1 : 0.046 µM

AC50 in this record for CCN(CC)CCOC(=O)c1ccc(N)cc1Cl : > 30 µM

AC50 in this record for Cc1ccc2c(-c3ccccc3)nc(=O)n(C(C)C)c2c1 : > 30 µM

AC50 in this record for CN1c2ccccc2C(NCCCCCCC(=O)O)c2ccc(Cl)cc2S1(=O)=O (configuration not stated) : 20 µM

AC50 in this record for C=C(C)[C@@H]1CCC(C)=C[C@H]1c1c(O)cc(CCCCC)cc1O : > 30 µM
